- tgt: Gelatinase A (MMP-2) (Homo sapiens, UniProt P08253)
- Construct: G. Murphy (Strangeways Labs., Cambridge, UK); host or cells: human cultures
- Sequence (P08253 110-660): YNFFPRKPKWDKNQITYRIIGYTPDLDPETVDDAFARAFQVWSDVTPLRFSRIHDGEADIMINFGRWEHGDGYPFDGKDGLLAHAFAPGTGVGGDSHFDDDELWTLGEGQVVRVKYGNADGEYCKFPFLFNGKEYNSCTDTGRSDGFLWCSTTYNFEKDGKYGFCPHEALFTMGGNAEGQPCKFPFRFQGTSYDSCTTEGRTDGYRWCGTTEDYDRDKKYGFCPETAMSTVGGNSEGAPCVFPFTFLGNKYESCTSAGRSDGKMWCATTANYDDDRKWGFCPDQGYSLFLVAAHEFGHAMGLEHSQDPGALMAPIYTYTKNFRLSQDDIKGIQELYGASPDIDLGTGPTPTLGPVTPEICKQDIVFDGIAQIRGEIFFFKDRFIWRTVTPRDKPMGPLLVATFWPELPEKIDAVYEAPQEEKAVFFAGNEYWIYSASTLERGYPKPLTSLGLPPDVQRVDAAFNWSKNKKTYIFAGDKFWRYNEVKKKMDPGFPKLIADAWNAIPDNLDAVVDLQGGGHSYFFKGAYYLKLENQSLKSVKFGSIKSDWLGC
- assay overview: Inhibition of the human enzyme Gelatinase A (MMP-2), fluorescent substrate
- Type: biochemical
- measurement parameters: expressed qualitatively; compounds incubated 3 hours at room temperature with enzyme before substrate
measure: INHIBITION

compound | INHIBITION
CCOP(=O)(OCC)C(Cc1c[nH]c2ccccc12)NC(=O)[C@H](CC(C)C)NC(=O)[C@@H]1CSC(=O)N1 (stereo partly drawn) | Fair
CCOP(=O)(OCC)C(Cc1c[nH]c2ccccc12)NC(=O)[C@H](CC(C)C)NC(=O)[C@@H]1CCC(=O)O1 (stereo partly drawn) | Fair
CCOP(=O)(OCC)C(Cc1c[nH]c2ccccc12)NC(=O)[C@H](CC(C)C)NC(=O)[C@@H]1CCCN1C(=O)OCc1ccccc1 (stereo partly drawn) | Good
CCOP(=O)(OCC)C(Cc1c[nH]c2ccccc12)NC(=O)[C@H](CC(C)C)NC(=O)c1ccco1 (stereo partly drawn) | Fair

Per the record, CCOP(=O)(OCC)C(Cc1c[nH]c2ccccc12)NC(=O)[C@H](CC(C)C)NC(=O)c1ccc[nH]1 (stereo partly drawn) has INHIBITION of Good

Per the record, CC(C)C[C@H](NC(=O)c1ccco1)C(=O)NC(Cc1c[nH]c2ccccc12)P(=O)(OCc1ccccc1)OCc1ccccc1 (stereo partly drawn) has INHIBITION of None

Provenance of the data: patent US6339160B1
